Test system: interferon-α production in hPBMCs
Experiment: Induction of interferon-α production in hPBMCs
Format: cell-based, human
Conditions: geometric mean of all individual MECs across all donors; interferon-α production from hPBMCs, 24 hours
Marks after values point to notes of the source that are not given here.
# Weighted MEC values compiled below
outcomeMeasure: Weighted MEC

INSERT INTO measurements (smilesstring, testtarget, result) VALUES
  ('C/C=C/Cn1c(=O)n([C@@H]2O[C@H](CO)[C@H](O)[C@H]2O)c2nc(N)[nH]c(=O)c21', 'interferon-α production in hPBMCs', '63 µM'),
  ('C=CCn1c(=O)n([C@@H]2O[C@H](CO)[C@H](O)[C@H]2O)c2nc(N)[nH]c(=O)c21', 'interferon-α production in hPBMCs', '79 µM'),
  ('CCCn1c(=O)n([C@@H]2O[C@H](CO)[C@H](O)[C@H]2O)c2nc(N)[nH]c(=O)c21', 'interferon-α production in hPBMCs', '100* μM'),
  ('Nc1nc2c(c(=O)[nH]1)n(Cc1ccc(C(F)(F)F)cc1)c(=O)n2[C@@H]1O[C@H](CO)C[C@H]1O', 'interferon-α production in hPBMCs', '79* μM'),
  ('Nc1nc2c(c(=O)[nH]1)n(CC(F)(F)F)c(=O)n2[C@@H]1O[C@H](CO)[C@H](O)[C@H]1O', 'interferon-α production in hPBMCs', '66* μM'),
  ('COC(=O)/C=C/Cn1c(=O)n([C@@H]2O[C@H](CO)[C@H](O)[C@H]2O)c2nc(N)[nH]c(=O)c21', 'interferon-α production in hPBMCs', '>100* μM'),
  ('COC(=O)Cn1c(=O)n([C@@H]2O[C@H](CO)[C@H](O)[C@H]2O)c2nc(N)[nH]c(=O)c21', 'interferon-α production in hPBMCs', '>100* μM');
